species: Rattus norvegicus; experiment: Open TG-GATES - Regimen: Daily Repeat; assay type: toxicity, organism-based, Sprague-Dawley; design: regimen Daily Repeat, gender Male, age 6 weeks; details: in vivo, po, 0 mg/kg, […], tissue Blood, route gavage, dose level Control, time 7 day
Metric Name: Eos (%)
Only the number, expressed in %, is required.

Example compounds with recorded Eos:
# Compound, Eos, %
records = [
    ("C=CCO [ALLYL ALCOHOL]", 1),
    ("CS(=O)(=O)Nc1ccc([N+](=O)[O-])cc1Oc1ccccc1 [NIMESULIDE]", 1),
    ("Cn1c(=O)c2c(ncn2C)n(C)c1=O [CAFFEINE]", 0.8),
]

Respond only with Eos recorded for COc1ccc(Cl)cc1C(=O)NCCc1ccc(S(=O)(=O)NC(=O)NC2CCCCC2)cc1 [GLYBURIDE]
0.8

# return recorded Eos for entry Cc1cccc(Nc2cc(Cl)nc(SCC(=O)O)n2)c1C [PIRINIXIC ACID]
0.4

Give Eos for the following compound: O=C1NC(=O)C(c2ccccc2)(c2ccccc2)N1 [PHENYTOIN]
0.4

* * *

organism: Rattus norvegicus; experiment: Open TG-GATES - Regimen: Daily Repeat; format: toxicity, organism-based, Sprague-Dawley; set-up: regimen Daily Repeat, gender Male, age 6 weeks; details: in vivo, po, 0 mg/kg, […], tissue Plasma, route gavage, dose level Control, time 7 day
Metric Name: CRE (mg/dL)
Form entry: value (mg/dL) — number only.

# Compound, Metric Name, Unit Annotation, Readout Number
records = [
    ("O=P1(N(CCCl)CCCl)NCCCO1 (stereo unspecified) [CYCLOPHOSPHAMIDE ANHYDROUS]", "CRE", "mg/dL", 0.2),
    ("Cn1c(=O)c2c(ncn2C)n(C)c1=O", "CRE", "mg/dL", 0.1),
    ("C=CCO", "CRE", "mg/dL", 0.4),
    ("O=C1NC(=O)C(c2ccccc2)(c2ccccc2)N1", "CRE", "mg/dL", 0.2),
    ("Cc1cccc(Nc2cc(Cl)nc(SCC(=O)O)n2)c1C", "CRE", "mg/dL", 0.2),
]

Could you now consider this next compound?
Identify measured CRE corresponding to CS(=O)(=O)Nc1ccc([N+](=O)[O-])cc1Oc1ccccc1 [NIMESULIDE]
0.6

* * *

species: Rattus norvegicus; assay: Open TG-GATES - Regimen: Single; format: toxicity, organism-based, Sprague-Dawley; design: regimen Single, gender Male, age 6 weeks; details: in vivo, po, 0 mg/kg, 9 h, tissue Blood, route gavage, dose level Control
Metric Name: Eos (%)
Just the number in %, nothing appended.

The cases that follow already have their Eos on record.
# Compound, Readout Number
data = [
    ("CNCCC(Oc1ccc(C(F)(F)F)cc1)c1ccccc1.Cl (stereo unspecified) [FLUOXETINE HYDROCHLORIDE]", 1),
    ("Cc1cccc(Nc2cc(Cl)nc(SCC(=O)O)n2)c1C", 0.8),
    ("S=C=Nc1cccc2ccccc12 [1-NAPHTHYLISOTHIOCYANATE]", 0.8),
    ("COc1ccc(Cl)cc1C(=O)NCCc1ccc(S(=O)(=O)NC(=O)NC2CCCCC2)cc1 [GLYBURIDE]", 1),
]

Indicate its recorded Eos; the compound in question is COc1ccc(O)c(C(C)(C)C)c1.COc1ccc(O)cc1C(C)(C)C [BUTYLATED HYDROXYANISOLE]
0.8

Please look at this compound and report its Eos: Cn1cnc([N+](=O)[O-])c1Sc1ncnc2nc[nH]c12
0.6

Determine its reported Eos: O=C1CN(/N=C/c2ccc(-c3ccc([N+](=O)[O-])cc3)o2)C(O)=N1
1

Determine from records and report Eos for O=C1NC(=O)C(c2ccccc2)(c2ccccc2)N1
0.8

* * *

organism: Rattus norvegicus; experiment: Open TG-GATES - Regimen: Daily Repeat; type: toxicity, organism-based, Sprague-Dawley; set-up: regimen Daily Repeat, gender Male, age 6 weeks; settings: in vivo, po, 0 mg/kg, 72 h, tissue Blood, route gavage, dose level Control, time 3 day
Metric Name: PT
A bare number is not enough; add the unit after it.

# Molecule, PT
data = [
    ("COc1ccc(Cl)cc1C(=O)NCCc1ccc(S(=O)(=O)NC(=O)NC2CCCCC2)cc1 [GLYBURIDE]", "12.1 s"),
    ("CS(=O)(=O)Nc1ccc([N+](=O)[O-])cc1Oc1ccccc1 [NIMESULIDE]", "11.7 s"),
    ("Cn1c(=O)c2c(ncn2C)n(C)c1=O", "15.7 s"),
]

Respond only with PT recorded for Cc1cccc(Nc2cc(Cl)nc(SCC(=O)O)n2)c1C
12.3 s

Supply PT value. Item: Cn1cnc([N+](=O)[O-])c1Sc1ncnc2nc[nH]c12
16.3 s

* * *

species on record: Rattus norvegicus; test: Open TG-GATES - Regimen: Single; type: toxicity, organism-based, Sprague-Dawley; design: regimen Single, gender Male, age 6 weeks; settings: in vivo, po, 0 mg/kg, 9 h, tissue Plasma, route gavage, dose level Control
Metric Name: DBIL (mg/dL)
Give the value in mg/dL but do not write mg/dL after it.

# Molecule, Metric Name, Unit Annotation, Readout Number
rows = [
    ("Cc1cccc(Nc2cc(Cl)nc(SCC(=O)O)n2)c1C [PIRINIXIC ACID]", "DBIL", "mg/dL", 0.02),
    ("S=C=Nc1cccc2ccccc12 [1-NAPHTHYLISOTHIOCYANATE]", "DBIL", "mg/dL", 0.07),
    ("C=CCO [ALLYL ALCOHOL]", "DBIL", "mg/dL", 0.08),
    ("O=C1NC(=O)C(c2ccccc2)(c2ccccc2)N1 [PHENYTOIN]", "DBIL", "mg/dL", 0.014),
    ("Cn1cnc([N+](=O)[O-])c1Sc1ncnc2nc[nH]c12 [AZATHIOPRINE]", "DBIL", "mg/dL", 0.004),
]

Please find the next molecule below.
Output measured DBIL for this item: COc1ccc(O)c(C(C)(C)C)c1.COc1ccc(O)cc1C(C)(C)C [BUTYLATED HYDROXYANISOLE]
0.022

* * *

organism: Rattus norvegicus; test: Open TG-GATES - Regimen: Single; assay type: toxicity, organism-based, Sprague-Dawley; design: regimen Single, gender Male, age 6 weeks; settings: in vivo, po, 0 mg/kg, 9 h, tissue Plasma, route gavage, dose level Control
Metric Name: CRE (mg/dL)
Entry rule: numbers only, all in mg/dL.

# Compound, Metric Name, Readout Number
measured = [
    ("O=C1NC(=O)C(c2ccccc2)(c2ccccc2)N1", "CRE", 0.2),
]

# next compound below
Give recorded CRE. Cn1cnc([N+](=O)[O-])c1Sc1ncnc2nc[nH]c12
0.1

* * *

species: Rattus norvegicus; experiment: Open TG-GATES - Regimen: Daily Repeat; assay type: toxicity, organism-based, Sprague-Dawley; design: regimen Daily Repeat, gender Male, age 6 weeks; conditions: in vivo, po, 0 mg/kg, […], tissue Plasma, route gavage, dose level Control, time 7 day
Metric Name: PL (mg/dL)
Field: numeric (mg/dL). Do not append units.

# Compound, Metric Name, Readout Number
data = [
    ("C=CCO [ALLYL ALCOHOL]", "PL", 146),
    ("CS(=O)(=O)Nc1ccc([N+](=O)[O-])cc1Oc1ccccc1 [NIMESULIDE]", "PL", 153.8),
    ("COc1ccc(O)c(C(C)(C)C)c1.COc1ccc(O)cc1C(C)(C)C [BUTYLATED HYDROXYANISOLE]", "PL", 135.4),
    ("Cc1cccc(Nc2cc(Cl)nc(SCC(=O)O)n2)c1C [PIRINIXIC ACID]", "PL", 164.2),
    ("O=C1CN(/N=C/c2ccc(-c3ccc([N+](=O)[O-])cc3)o2)C(O)=N1 [DANTROLENE]", "PL", 164.2),
]

Give the value of PL reported for the following: O=C1NC(=O)C(c2ccccc2)(c2ccccc2)N1 [PHENYTOIN]
140

Provide one value: measured PL of Cn1cnc([N+](=O)[O-])c1Sc1ncnc2nc[nH]c12 [AZATHIOPRINE]
156.6

Let me know recorded PL for O=P1(N(CCCl)CCCl)NCCCO1 (centres undefined) [CYCLOPHOSPHAMIDE ANHYDROUS] , thanks.
146.8

Quote PL reported for COc1ccc(Cl)cc1C(=O)NCCc1ccc(S(=O)(=O)NC(=O)NC2CCCCC2)cc1 [GLYBURIDE] please.
152

* * *

organism: Rattus norvegicus; assay: Open TG-GATES - Regimen: Single; type: toxicity, organism-based, Sprague-Dawley; design: regimen Single, gender Male, age 6 weeks; conditions: in vivo, po, 0 mg/kg, 9 h, tissue Blood, route gavage, dose level Control
Metric Name: PT (s)
Dear colleague, please return just the value in s, with no unit written.

Some solved cases for reference:
# Compound, Readout Number
records = [
    ("Cc1cnc(NC(=O)C2=C(O)c3ccccc3S(=O)(=O)N2C)s1", 12.6),
    ("C=CCO", 12.5),
]

Could you please provide reported PT for COc1ccc(Cl)cc1C(=O)NCCc1ccc(S(=O)(=O)NC(=O)NC2CCCCC2)cc1 [GLYBURIDE] ? Thanks!
12.7

Quick one: give measured PT for S=C=Nc1cccc2ccccc12 [1-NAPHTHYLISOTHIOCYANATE]
12.2

Consider the compound COc1ccc(O)c(C(C)(C)C)c1.COc1ccc(O)cc1C(C)(C)C [BUTYLATED HYDROXYANISOLE] and give its recorded PT.
12.8

Please give measured PT of the following entry: O=C1NC(=O)C(c2ccccc2)(c2ccccc2)N1
13.8

Return value of PT for input Cc1cccc(Nc2cc(Cl)nc(SCC(=O)O)n2)c1C , no commentary.
12.4

Find the measured PT of Cn1cnc([N+](=O)[O-])c1Sc1ncnc2nc[nH]c12 and report it.
15.2

Please give the documented PT of CS(=O)(=O)Nc1ccc([N+](=O)[O-])cc1Oc1ccccc1 [NIMESULIDE]
12.4
